Values compiled from patent US20240415914A1.

test: Stability of cannabinoid and Vitamin E components of Beverage 1 (AB White) stored at 8° C. and 21-25° C., LCMSMS over 570 days; type: physicochemical; conditions: beverage stored at 8° C., day 25
Measured Stability in AB White, 8° C. (content by LCMSMS), listed per entry for reference.
Answer format: numeric, µg/mL implied, no suffix.

A selection of reference data follows.
> print(dat)
                                   molecule  result.units  result
1  CCCCCc1cc(O)c2c(c1)OC(C)(CCC=C(C)C)C=C2 (stereo not shown)         µg/mL   0.310
2  CCCCCc1cc(O)c2c(c1)OC(C)(C)[C@@H]1CCC(C)=C[C@@H]21 [D9 THC, delta-9-tetrahydrocannabinol, reference compound]         µg/mL   11.99
3  CCCCCc1cc2c(c(O)c1C(=O)O)[C@@H]1C=C(C)CC[C@H]1C(C)(C)O2 [D9 THCA, delta-9-tetrahydrocannabinolic acid]         µg/mL   0.957

Quick one: Stability in AB White, 8° C. (content by LCMSMS) of "CCCCCc1cc(O)c2c(c1)OC(C)(C)c1ccc(C)cc1-2" ?
2.75

Quick one: Stability in AB White, 8° C. (content by LCMSMS) of "C=C(C)[C@@H]1CCC(C)=C[C@H]1c1c(O)cc(CCCCC)c(C(=O)O)c1O" ?
1.75

Quick one: Stability in AB White, 8° C. (content by LCMSMS) of CCCc1cc(O)c2c(c1)OC(C)(C)[C@@H]1CCC(C)=C[C@@H]21 [THCV, delta-9-tetrahydrocannabivarin] ?
3.56

Quick one: Stability in AB White, 8° C. (content by LCMSMS) of "CCCCCc1cc(O)c(C/C=C(\C)CCC=C(C)C)c(O)c1" ?
4.89
